0.5-4 h area increase under heart rate curve (%) overview
Tested on: heart rate of Beagle dogs
assayInfo: Heart rate changes after iv administration in Beagle dogs
Assay type: in vivo, Beagle dog
measurementParameters: 0.10 mg/kg iv
Just the number in %, nothing appended.

Record excerpt, results attached:
C[N+]1(C)CCC(OC(=O)Nc2cc(CCC(=O)Nc3ccc(CNC[C@H](O)c4ccc(O)c5[nH]c(=O)ccc45)cc3)ccc2-c2ccccc2)CC1.O=C([O-])C(F)(F)F [reference compound]
109
CC(NC[C@H](O)c1ccc(O)c(CO)c1)c1ccc(OCCC[N+]23CCC(CC2)[C@@H](OC[C@@](O)(c2ccccc2)C2CCCC2)C3)cc1 (some centres unmarked)
−3.4
O=c1ccc2c([C@@H](O)CNCCCCCCCCCN3CCC(Cn4cnc([C@](O)(c5ccccc5)C5CCCCC5)n4)CC3)ccc(O)c2[nH]1 [reference compound]
152
CC(Cc1ccc(OCCC[N+]23CCC(CC2)[C@@H](OC[C@@](O)(c2ccccc2)C2CCCC2)C3)cc1)NC[C@H](O)c1ccc(O)c2[nH]c(=O)ccc12.[Br-] (some centres unmarked)
−5.1

Prompt line: Fill in: 0.5-4 h area increase under heart rate curve (%) of "OCc1cc([C@@H](O)CNCCCOc2ccc(OCCC[N+]34CCC(CC3)[C@@H](OC[C@@](O)(c3ccccc3)C3CCCC3)C4)cc2)ccc1O.[Br-]" is ___
Response line: 0

Provenance of the data: patent US11447485B2
